experimentDescription: Drug metabolism in rat liver microsomes assessed as metabolic turnover rate per 0.125 mg/ml protein pre-incubated at 37 degC for 5 mins before NADPH addition and measured after 30 mins by LC/MS/MS method
Format: ADME, microsome
conditionsUsed: 0.5 h
reportedEndpoint: Drug metabolism (nmol/min/mg)

>>> print(df.to_string())
                                 testsmiles  reportedendpoint  experimentalvalue
0  C[C@H](O)[C@@H](CCc1cccc(-c2ccccn2)c1)n1cnc2c(N)ncnc21   Drug metabolism               0.12

(P) CCCCSC[C@H]([C@H](C)O)n1cnc2c(N)ncnc21
(Q) C[C@H](O)[C@@H](CCC1CCCCC1)n1cnc2c(N)ncnc21
Which numeric Drug metabolism is bigger, that of P or that of Q ? Give the label of your selection.
Q
(Q: 0.44 nmol/min/mg, P: 0.04 nmol/min/mg)

(1) C[C@H](O)[C@@H](CCc1cccc(C(F)(F)F)c1)n1cnc(C(N)=O)c1
(2) C[C@H](O)[C@@H](CCc1cccc(-c2nccs2)c1)n1cnc2c(N)ncnc21
(3) CCc1ccc(CC[C@H]([C@H](C)O)n2cnc3c(N)ncnc32)s1
# rank_down: sort by Drug metabolism, max first List labels; respect the requested ordering.
3, 2, 1
